Molecular target: T1, CRBN, Q96SW2;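 also: pooled lentiviral library of zinc finger degron-EGFP fusions in mCherry-positive Jurkat cells, FACS-sorted after compound exposure, with degron abundance counted by next-generation sequencing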
T1 chain: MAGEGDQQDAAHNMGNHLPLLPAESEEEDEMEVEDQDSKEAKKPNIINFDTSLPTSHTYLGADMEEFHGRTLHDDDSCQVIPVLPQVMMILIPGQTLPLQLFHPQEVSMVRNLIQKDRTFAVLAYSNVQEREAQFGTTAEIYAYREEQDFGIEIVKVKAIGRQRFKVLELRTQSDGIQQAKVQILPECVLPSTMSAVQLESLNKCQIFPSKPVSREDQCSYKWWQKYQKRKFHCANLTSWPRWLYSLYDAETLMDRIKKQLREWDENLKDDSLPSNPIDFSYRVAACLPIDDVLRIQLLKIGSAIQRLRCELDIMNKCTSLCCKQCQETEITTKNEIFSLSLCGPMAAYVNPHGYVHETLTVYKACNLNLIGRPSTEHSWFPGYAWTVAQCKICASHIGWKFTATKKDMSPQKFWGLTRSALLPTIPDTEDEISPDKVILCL
Assay: log2 fold change of degron read counts, EGFP-low vs EGFP+ sorted cells (limma voom), compound-induced degradation; higher = more compound-induced degradation of the degron-EGFP fusion; degrons are variants of IKZF1/3 zinc finger 2; compound dose not given here
Conditions: Jurkat; 18 h; compound: thalidomide
Whole data set: some 8,300 sequences, median “log2 fold change of degron read counts, EGFP-low vs EGFP+ sorted cells (limma voom), compound-induced degradation” near -1.1, cut for the highest 2% near 3.2. Many of the other results were omitted from the sample, so the highest values are more common in it than they were.
Rule: log2 fold change of degron read counts of -2 or more gives Criterion met; anything lower gives Criterion not met.

Some entries whose results are on file:
FKCEICGHHFTQKGNLLRHIKL [46F_47K_49E_50I_52G_53H_54H_55F_67L_, Q9UKT9] | Criterion not met
FRCPICGHKFTQKGNLLRHIKL [46F_47R_49P_50I_52G_53H_54K_55F_67L_, Q9UKT9] | Criterion met
LNCPICGFYCTQKGNLLRHIKL [46L_47N_49P_50I_52G_53F_54Y_55C_67L_, Q9UKT9] | Criterion met
LYCPICGFYCTQKGNLLRHIKL [46L_47Y_49P_50I_52G_53F_54Y_55C_67L_, Q9UKT9] | Criterion met
FICNQCGHFFTQKGNLLRHIKL [46F_47I_49N_50Q_52G_53H_54F_55F_67L_, Q9UKT9] | Criterion not met

Kindly consider the entry below.
Challenge: In plain terms: is recorded log2 fold change of degron read counts at least -2 for LKCPICGFYCTQKGNLLRHIKL [46L_47K_49P_50I_52G_53F_54Y_55C_67L_, Q9UKT9] ?
Response given: Criterion met
